Hey, just so you know, these numbers are from patent US20100267561A1.

# Tested on: rice (Oryza sativa)
# test_description: Test B flooded paddy test plant response
# Format: in vivo
# measurement_setup: Flood (flooded paddy test), 62 g ai/ha; scale 0 to 100, 0 no effect, 100 complete control
I'd be grateful if you could share measured Plant response rating, Rice for these entries.
Reply briefly: the number, and no unit.

Exercise: Record request: Plant response rating, Rice value, item CCc1cc(-c2ccc(C(F)(F)F)cc2)nn1-c1c(O)c(OC)nn(C)c1=O [Compound 66]
Key: 0

Exercise: Record request: Plant response rating, Rice value, item CCOC(=O)Oc1cnn(C)c(=O)c1-n1nc(-c2ccc(Cl)cc2)cc1C [Compound 53]
Key: 0

Exercise: Record request: Plant response rating, Rice value, item Cc1ccc(-c2ccc(Cl)cc2)cc1-c1c(O)cnn(C)c1=O [Compound 46]
Key: 0

----------
# System: barnyardgrass (Echinochloa crus-galli)
# test_description: Test B flooded paddy test plant response
# Assay type: in vivo
# measurement_setup: Flood (flooded paddy test), 125 g ai/ha; scale 0 to 100, 0 no effect, 100 complete control
endpoint: Plant response rating, Barnyardgrass
Reply briefly: the number, and no unit.

Exercise: Record request: Plant response rating, Barnyardgrass value, item CCCc1cc(-c2ccc(C(F)(F)F)cc2)nn1-c1c(O)cnn(C)c1=O
Key: 40

Exercise: Record request: Plant response rating, Barnyardgrass value, item CCc1c(C)c(-c2ccc(Br)cc2)nn1-c1c(O)cnn(C)c1=O
Key: 0

Exercise: Record request: Plant response rating, Barnyardgrass value, item Cc1cc(-c2ccc(Cl)cc2)nn1-c1c(OS(=O)(=O)c2ccc(Cl)s2)cnn(C)c1=O
Key: 0

Exercise: Record request: Plant response rating, Barnyardgrass value, item Cc1ccc(-c2ccc(Cl)cc2)cc1-c1c(O)cnn(C)c1=O
Key: 30

Exercise: Record request: Plant response rating, Barnyardgrass value, item Cc1cc(-c2ccc(C(F)(F)F)cc2)nn1-c1c(O)c(C(C)C)nn(C)c1=O
Key: 0

Exercise: Record request: Plant response rating, Barnyardgrass value, item CCOC(=O)Oc1cnn(C)c(=O)c1-n1nc(-c2ccc(Cl)cc2)cc1C
Key: 0

Exercise: Record request: Plant response rating, Barnyardgrass value, item CCc1cc(-c2ccc(C(F)(F)F)cc2)nn1-c1c(OC(=O)OC(C)C)cnn(C)c1=O
Key: 60

Exercise: Record request: Plant response rating, Barnyardgrass value, item Cc1cc(-c2ccc(Cl)cc2)nn1-c1c(OS(=O)(=O)C(C)C)cnn(C)c1=O
Key: 0

Exercise: Record request: Plant response rating, Barnyardgrass value, item Cc1cc(-c2ccc(Cl)cc2)nn1-c1c(OS(=O)(=O)c2cccc3ccccc23)cnn(C)c1=O
Key: 0

Exercise: Record request: Plant response rating, Barnyardgrass value, item CCn1ncc(O)c(-c2cn(-c3ccc(Cl)cc3)nc2C)c1=O
Key: 0

Exercise: Record request: Plant response rating, Barnyardgrass value, item CCc1cc(-c2ccc(Cl)c(Cl)c2)nn1-c1c(OC(=O)OC(C)C)cnn(C)c1=O
Key: 0

----------
# Test system: surinam grass (Brachiaria decumbens)
# test_description: Test B pre-/postemergence plant response
# Format: in vivo
# measurement_setup: Postemergence, 16 g ai/ha; scale 0 to 100
endpoint: Plant response rating, Surinam Grass
Reply briefly: the number, and no unit.

Exercise: Record request: Plant response rating, Surinam Grass value, item Cc1cc(-c2ccc(Cl)cc2)nn1-c1c(OC(=O)c2ccccc2Cl)cnn(C)c1=O [Compound 38]
Key: 90

Exercise: Record request: Plant response rating, Surinam Grass value, item Cc1cc(-c2ccc(Cl)cc2)nn1-c1c(OC(=O)CC(C)C)cnn(C)c1=O [Compound 37]
Key: 100

Exercise: Record request: Plant response rating, Surinam Grass value, item Cc1cc(-c2ccc(Cl)cc2)nn1-c1c(OC(=O)c2cccc(Cl)c2)cnn(C)c1=O [Compound 32]
Key: 70

Exercise: Record request: Plant response rating, Surinam Grass value, item CCc1cc(-c2ccc(C(F)(F)F)cc2)nn1-c1c(OC(=O)OC(C)C)cnn(C)c1=O [Compound 12]
Key: 100

----------
# System: windgrass (Apera spica-venti)
# test_description: Test B postemergence plant response
# Format: in vivo
# measurement_setup: Postemergence, 16 g ai/ha; scale 0 to 100
I'd be grateful if you could share measured Plant response rating, Windgrass for these entries.
Reply briefly: the number, and no unit.

Exercise: Record request: Plant response rating, Windgrass value, item Cc1cc(-c2ccc(Cl)cc2)nn1-c1c(OC(=O)CC(C)C)cnn(C)c1=O [Compound 37]
Key: 60

Exercise: Record request: Plant response rating, Windgrass value, item Cc1cc(-c2ccc(Cl)cc2)nn1-c1c(OC(=O)c2cccs2)cnn(C)c1=O [Compound 52]
Key: 0

Exercise: Record request: Plant response rating, Windgrass value, item Cc1cc(-c2ccc(Cl)cc2)nn1-c1c(OC(=O)c2cccc(Cl)c2)cnn(C)c1=O [Compound 32]
Key: 0

Exercise: Record request: Plant response rating, Windgrass value, item Cc1cc(-c2ccc(Cl)cc2)nn1-c1c(OC(=O)c2ccccc2Cl)cnn(C)c1=O [Compound 38]
Key: 0

----------
# Test system: surinam grass (Brachiaria decumbens)
# test_description: Test B pre-/postemergence plant response
# Format: in vivo
# measurement_setup: Preemergence; 8 g ai/ha; scale 0 to 100
# Excerpt: […] Plant species in the flooded paddy test consisted of rice (Oryza sativa), umbrella sedge (Cyperus difformis), ducksalad (Heteranthera limosa) and barnyardgrass (Echinochloa crus-galli) grown to the 2-leaf stage for testing. […] Treated plants and controls were maintained in a greenhouse for 13 to 15 days, after which time all species were compared to controls and visually evaluated. […]
The label is t for Surinam Grass plant response rating below 20 and f for Surinam Grass plant response rating equal to or exceeding 20.

Exercise: Find out if reported Surinam Grass plant response rating for Cc1ccc(-c2ccc(Cl)cc2)cc1-c1c(O)cnn(C)c1=O [Compound 46] is less than 20
Key: t

Exercise: Find out if reported Surinam Grass plant response rating for CCc1cc(-c2ccc(C(F)(F)F)cc2)nn1-c1c(O)c(OC)nn(C)c1=O [Compound 66] is less than 20
Key: t

Exercise: Find out if reported Surinam Grass plant response rating for CCOC(=O)Oc1cnn(C)c(=O)c1-n1nc(-c2ccc(Cl)cc2)cc1C [Compound 53] is less than 20
Key: t

Exercise: Find out if reported Surinam Grass plant response rating for CCc1cc(-c2ccc(Br)cc2)nn1-c1c(O)c(C)nn(C)c1=O [Compound 74] is less than 20
Key: f

Exercise: Find out if reported Surinam Grass plant response rating for Cc1cc(-c2ccc(Cl)cc2)nn1-c1c(OS(=O)(=O)c2cccc3ccccc23)cnn(C)c1=O [Compound 47] is less than 20
Key: f

Exercise: Find out if reported Surinam Grass plant response rating for CCCc1cc(-c2ccc(Cl)cc2)nn1-c1c(O)cnn(C)c1=O [Compound 76] is less than 20
Key: f

Exercise: Find out if reported Surinam Grass plant response rating for Cc1cc(-c2ccc(Cl)cc2)nn1-c1c(OS(=O)(=O)c2ccc(Cl)s2)cnn(C)c1=O [Compound 55] is less than 20
Key: t

----------
I'd be grateful if you could share measured Plant response rating, Bermudagrass for these entries.
# System: bermudagrass (Cynodon dactylon)
# test_description: Test B pre-/postemergence plant response
# Assay type: in vivo
# measurement_setup: Preemergence, 16 g ai/ha; scale 0 to 100 (0 no effect, 100 complete control)
Reply briefly: the number, and no unit.

Exercise: Record request: Plant response rating, Bermudagrass value, item Cc1cc(-c2ccc(C(F)(F)F)cc2)nn1-c1c(O)c(C(C)C)nn(C)c1=O [Compound 27]
Key: 0

Exercise: Record request: Plant response rating, Bermudagrass value, item CCCc1cc(-c2ccc(C(F)(F)F)cc2)nn1-c1c(O)cnn(C)c1=O [Compound 72]
Key: 100

Exercise: Record request: Plant response rating, Bermudagrass value, item Cc1cc(-c2ccc(Cl)cc2)nn1-c1c(OC(=O)c2ccccc2Cl)cnn(C)c1=O [Compound 38]
Key: 100

Exercise: Record request: Plant response rating, Bermudagrass value, item CCCC(=O)Oc1cnn(C)c(=O)c1-n1nc(-c2ccc(Cl)cc2)cc1C [Compound 56]
Key: 100

Exercise: Record request: Plant response rating, Bermudagrass value, item Cc1cc(-c2ccc(Cl)cc2)nn1-c1c(OS(=O)(=O)c2cccc3ccccc23)cnn(C)c1=O [Compound 47]
Key: 100

----------
# Tested on: johnsongrass (Sorghum halepense)
# test_description: Test B pre-/postemergence plant response
# Format: in vivo
# measurement_setup: 16 g ai/ha, postemergence; 0-100 scale
I'd be grateful if you could share measured Johnsongrass plant response rating for these entries.
Reply briefly: the number, and no unit.

Exercise: Record request: Johnsongrass plant response rating value, item Cc1nn(C)c(=O)c(-c2nc(-c3ccc(Cl)cc3)sc2C)c1O [Compound 79]
Key: 90

Exercise: Record request: Johnsongrass plant response rating value, item CCc1cc(-c2ccc(Br)cc2)nn1-c1c(O)cnn(CC(F)(F)F)c1=O [Compound 73]
Key: 85

Exercise: Record request: Johnsongrass plant response rating value, item CCc1c(C)c(-c2ccc(Br)cc2)nn1-c1c(O)cnn(C)c1=O [Compound 83]
Key: 70

Exercise: Record request: Johnsongrass plant response rating value, item COc1nn(C)c(=O)c(-n2nc(-c3ccc(Br)cc3)cc2C)c1O [Compound 82]
Key: 100
